# procedure.text: Solubility in fasted state simulated intestinal fluid
# Assay type: ADME
property: solubility (µg/mL)

smiles_input=CS(=O)(=O)c1ccc(-c2nn(-c3ccc(F)cc3)cc2Sc2ccc(Cl)cc2)cc1 property=solubility observed=3
smiles_input=Clc1ccc(Sc2cn(-c3cccnc3)nc2-c2ccc(-c3ncon3)cc2)cc1 property=solubility observed=27

###

# procedure.text: Fraction unbound in human plasma
# Assay type: ADME, cell-free
property: fraction unbound

smiles_input=CC(C)(O)c1ccc(-c2nc(-c3ccc(F)cc3)oc2Sc2ccc(Cl)cn2)cn1 observed=0.016

###

# system.name: Voltage-gated inwardly rectifying potassium channel KCNH2 (Homo sapiens)
# Sequence (Q12809 whole entry): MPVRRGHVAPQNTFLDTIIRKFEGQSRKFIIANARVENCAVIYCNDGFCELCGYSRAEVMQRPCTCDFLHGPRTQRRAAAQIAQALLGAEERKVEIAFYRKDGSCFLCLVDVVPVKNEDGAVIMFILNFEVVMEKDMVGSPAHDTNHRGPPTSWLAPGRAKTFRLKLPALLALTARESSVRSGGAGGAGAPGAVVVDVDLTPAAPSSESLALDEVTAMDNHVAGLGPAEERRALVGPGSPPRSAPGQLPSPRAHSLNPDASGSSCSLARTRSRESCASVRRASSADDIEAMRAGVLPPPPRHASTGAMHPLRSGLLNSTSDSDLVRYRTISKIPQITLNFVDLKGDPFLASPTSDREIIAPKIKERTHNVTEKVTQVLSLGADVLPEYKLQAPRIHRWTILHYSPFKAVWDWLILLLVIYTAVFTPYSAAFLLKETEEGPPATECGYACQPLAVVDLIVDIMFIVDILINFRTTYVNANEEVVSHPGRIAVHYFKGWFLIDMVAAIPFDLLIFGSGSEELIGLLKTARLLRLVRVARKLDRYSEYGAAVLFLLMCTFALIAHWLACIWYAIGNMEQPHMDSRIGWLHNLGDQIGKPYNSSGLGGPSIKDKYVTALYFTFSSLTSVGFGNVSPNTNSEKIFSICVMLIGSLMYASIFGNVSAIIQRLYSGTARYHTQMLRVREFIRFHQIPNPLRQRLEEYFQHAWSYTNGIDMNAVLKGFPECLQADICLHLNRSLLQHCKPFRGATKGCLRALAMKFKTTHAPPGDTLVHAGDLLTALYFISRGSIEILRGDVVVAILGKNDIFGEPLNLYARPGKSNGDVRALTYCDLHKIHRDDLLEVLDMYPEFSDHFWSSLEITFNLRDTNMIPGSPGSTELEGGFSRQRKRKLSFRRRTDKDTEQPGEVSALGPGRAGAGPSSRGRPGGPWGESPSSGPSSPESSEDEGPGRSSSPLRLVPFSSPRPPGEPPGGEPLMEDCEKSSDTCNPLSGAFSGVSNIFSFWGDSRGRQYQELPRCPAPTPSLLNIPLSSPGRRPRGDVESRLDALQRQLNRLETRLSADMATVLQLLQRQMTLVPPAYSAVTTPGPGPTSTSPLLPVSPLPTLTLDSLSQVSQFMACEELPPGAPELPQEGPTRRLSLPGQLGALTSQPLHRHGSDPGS
pKi: −log10 of the molar value.
Label Met when pKi >= 6; otherwise Not met.

smiles_input=CS(=O)(=O)c1ccc(-c2nc(-c3ccc(F)cc3)oc2Sc2ccc(Cl)cn2)cc1 assigned_category="Not met"
smiles_input=Clc1ccc(Sc2cn(-c3ccccc3)nc2-c2ccc3c(c2)OCCO3)cc1 assigned_category="Not met"
smiles_input=Clc1ccc(Sc2cn(-c3cccnc3)nc2-c2ccc(-c3ncon3)cc2)cc1 assigned_category="Not met"
smiles_input=CS(=O)(=O)c1ccc(-c2nn(-c3ccc(F)cc3)cc2Sc2ccc(Cl)cc2)cc1 assigned_category=Met
smiles_input=CS(=O)(=O)c1ccc(-c2nc(-c3ccccc3)oc2Sc2ccc(Cl)cc2)cc1 assigned_category="Not met"
smiles_input=Clc1ccc(Sc2c[nH]nc2-c2ccc3c(c2)OCCO3)cc1 assigned_category="Not met"
